Target sequence: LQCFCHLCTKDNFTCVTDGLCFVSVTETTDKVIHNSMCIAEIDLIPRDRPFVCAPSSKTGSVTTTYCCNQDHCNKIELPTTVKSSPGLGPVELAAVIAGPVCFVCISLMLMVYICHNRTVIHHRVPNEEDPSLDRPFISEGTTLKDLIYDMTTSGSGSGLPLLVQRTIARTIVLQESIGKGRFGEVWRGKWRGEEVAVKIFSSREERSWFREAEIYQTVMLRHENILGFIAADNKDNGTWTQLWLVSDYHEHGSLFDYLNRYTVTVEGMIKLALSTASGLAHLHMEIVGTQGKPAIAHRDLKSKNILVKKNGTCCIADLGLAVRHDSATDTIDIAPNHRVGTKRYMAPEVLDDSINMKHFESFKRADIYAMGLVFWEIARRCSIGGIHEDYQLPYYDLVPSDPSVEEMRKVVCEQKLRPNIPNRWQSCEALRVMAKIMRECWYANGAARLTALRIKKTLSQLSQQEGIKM
MEASUREMENT_TYPE: pIC50
Please report pIC50 as the negative decimal logarithm of the molar concentration, giving only the number.

Here's what some known entries look like.
| COMPOUND | VALUE |
| --- | --- |
| Fc1ccc(Cl)cc1-c1cc(Nc2ccnc3cnn(C4CCOCC4)c23)ccn1 | 7.00 |
| Cc1ccc(F)c(-c2cc(Nc3ccnc4cn(C[C@H](C)O)nc34)c(C)cn2)n1 | 8.20 |
| Fc1ccc(Cl)cc1-c1cc(Nc2ccnc3cnn(CC4CCNCC4)c23)ccn1 | 5.60 |
| Cc1cnc(-c2cc(Cl)ccc2F)cc1Nc1ccnc2cn(C)nc12 | 8.20 |
| Cc1ccc(F)c(-c2cc(Nc3ccnc4cn(C[C@@H](C)O)nc34)ccn2)n1 | 6.80 |
| Cc1ccc(F)c(-c2cc(Nc3ccnc4cn(C(C)C)nc34)ccn2)n1 | 5.90 |

Query string: Which measured pIC50 value corresponds to CNC(=O)n1ncc2nccc(Nc3ccnc(-c4nc(C)ccc4F)c3)c21 ?
Result string: 7.40

Query string: Would you kindly share the measured pIC50 for COCCCn1ncc2nccc(Nc3ccnc(-c4cc(Cl)ccc4F)c3)c21 ?
Result string: 6.70

Query string: Returns the measured pIC50 for the input compound. Input: Cc1cc(Nc2ccnc3cnn(CC(N)=O)c23)cc(-c2cc(Cl)ccc2F)n1 [Example 60A]
Result string: 7.50

Query string: # input compound: Cc1ccc(F)c(-c2cc(Nc3ccnc4cn[nH]c34)c(C)cn2)n1 ; wanted: its pIC50
Result string: 8.60

Query string: What value of pIC50 has been recorded for this entry: Cc1cnc(-c2cc(F)ccc2F)cc1Nc1ccnc2cn[nH]c12
Result string: 9.00

Query string: Any idea what pIC50 was measured for CCNC(=O)Cn1ncc2nccc(Nc3cc(-c4nc(C)ccc4F)ncc3C)c21 ?
Result string: 8.10

Query string: Report pIC50 for COCCCn1cc2nccc(Nc3ccnc(-c4cc(Cl)ccc4F)c3)c2n1 please.
Result string: 6.40

Query string: Need pIC50, item Cc1cnc(-c2cc(Cl)ccc2F)nc1Nc1ccnc2cn[nH]c12
Result string: 8.00

Reference source: patent US9073918B2
